molecular target: T1, SARS-CoV2 Spike ecto foldon Trimer expressed with a C-terminal myc-myc-hexahistidine (SARS-CoV-2, UniProt P0DTC2 14-1213); test: SPR Biacore, mAb captured by anti-hFc, 37C
T1 construct: extracellular domain
Kindly state koff for each of the entries shown.

What value of koff has been recorded for this entry: mAb14312 (antibody, V domains shown) VH: EVQLVESGGGLVQPGGSLRLSCAASGFTVSRSYMTWVRQAPGKGLEWVSVIFTGGRTDHADSVKGRFTISRHNSKNTLYLQMNSLRTEDTAVYYCARVAIVGATGAFDIWGQGTMVTVSS VL: QSVLTQPPSVSGAPGQRVTISCTGSSSNIGAGDDVHWYQQLPGTAPKLLIYGNSNRPSGVPDRFSGSKSGTSASLAITGLQAEDEADYYCQSYDSSLSGSVVFGGGTKLTVLG 5.44e-05 s⁻¹

What value of koff has been recorded for this entry: mAb13458 (antibody, V domains shown) VH: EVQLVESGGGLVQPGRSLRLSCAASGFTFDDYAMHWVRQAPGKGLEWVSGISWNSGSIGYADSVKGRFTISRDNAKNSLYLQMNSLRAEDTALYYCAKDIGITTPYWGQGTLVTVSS VL: AIQMTQSPSSLSASVGDRVTITCRASQDIRNDLGWYQQKPGKAPKLLIYSASSLQTGVPSRFSGSGSGTDFTLTISSLHPEDFATYYCLQDYWYTWTFGQGTKVEIKR 4.08e-05 s⁻¹

What value of koff has been recorded for this entry: mAb14286 (antibody, V domains shown) VH: QVQLVQSGAEVKKPGASVKVSCKASGYTFTDYFIHWVRQAPGQGLEWMGWINPTSGGTNYAQKFRGRVTMTRDTSISTAYVELSRLRSDDTALYYCARDLPFYSDTKQFDYWGQGTLVTVSS VL: QSALTQPASVSGYPGQSITISCTGTSSDVGGYNYVSWYQQHPGKAPKLMIFDVSNRPSGVSNRFSGSKSGNTASLTFSGLQAEDEADYYCSSYTSSSTLVFGGGTKLTVLG 0.000141 s⁻¹

What value of koff has been recorded for this entry: mAb14247 (antibody, V domains shown) VH: QITLKESGPTLVKPTQTLTLTCTFSGFSLSTSAVGVGWIRQPPGKALEWLALIYWDDDKRYSPSLKSRLTITKDTSKNQLVLTMTNVDPVDTATYYCAHHTIQLIFDYWGQGTLVTVSS VL: QSALTQPASVSGSPGQSITISCTATSSDVGNYNYVSWYQQHPGKAPKLMIYEVSNRPSGVSNRFSGSKSGNTASLTISGLQAEDEADYYCSSYTSSSTPLVFGGGTKLTVLG 4.72e-05 s⁻¹

What value of koff has been recorded for this entry: mAb14256 (antibody, V domains shown) VH: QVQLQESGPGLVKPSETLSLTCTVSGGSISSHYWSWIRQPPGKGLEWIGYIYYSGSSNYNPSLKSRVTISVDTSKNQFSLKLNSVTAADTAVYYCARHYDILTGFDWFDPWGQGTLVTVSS VL: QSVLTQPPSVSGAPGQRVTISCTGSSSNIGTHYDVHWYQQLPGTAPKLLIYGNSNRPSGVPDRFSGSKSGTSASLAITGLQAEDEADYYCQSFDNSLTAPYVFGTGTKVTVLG 0.000242 s⁻¹

What value of koff has been recorded for this entry: mAb15166 (antibody, V domains shown) VH: EVQLVESGGGLVQPGGSLRLSCAASGFTVTSNYMSWVRQAPGKGLEWVSAIYSGESTYYADSVKGRFTISRDSSKNTLYLQMNSLRVEDTAVYYCASIHDYSNYVGGFDPWGQGTLVTVSS VL: QSALTQPASVSGSPGQSITISCTGPSSDFGSYNLVSWYQQHPGKAPKLMIYEGTKRPSGVSNRFSGSKSGNTASLTISGLQAEDEADYYCSSYAGSSTWVFGGGTKLTVLG 8.32e-05 s⁻¹
